Reported Ki values follow for various molecules
assay: Inhibition of beta lactamase KPC-2 in Klebsiella pneumoniae assessed as apparent inhibition constant using nitrocefin as substrate measured without preincubation by Dixon plot analysis; conditions: read-out: Ki(app)
attribute_measured: Ki (nM)

O=C(O)C[C@@H]1CC[C@H](NC(=O)Cc2cccs2)B(O)O1 [VABORBACTAM] = 8500
O=C(NC1CCNCC1)[C@@H]1CC[C@@H]2CN1C(=O)N2OS(=O)(=O)O [RELEBACTAM] = 1200
NCCN[C@H]1CC[C@H](CC(=O)N[C@H]2Cc3cccc(C(=O)O)c3OB2O)CC1 = 1300

----------
test: Inhibition of beta lactamase KPC-2 in Klebsiella pneumoniae using nitrocefin as substrate preincubated for 10 mins followed by substrate addition
pIC50: −log10 of the molar value.
attribute_measured: pIC50

NCCN[C@H]1CC[C@H](CC(=O)N[C@H]2Cc3cccc(C(=O)O)c3OB2O)CC1 = 7.43
O=C(O)C[C@@H]1CC[C@H](NC(=O)Cc2cccs2)B(O)O1 [VABORBACTAM] = 7.46
